# assay-comment: Human intrinsic and hepatic clearance
# Assay type: in vitro ADME
Listing of recorded Human CLhep by entry.
measure-name: Human CLhep

molecule	measure-name	obs-value
CO[C@H](C)COc1nccc2cc(Nc3n[nH]c4nccnc34)ccc12	Human CLhep	0.984 L/h/kg
Fc1cnc2c(Nc3ccc4c(OCC5COCCO5)nccc4c3)n[nH]c2c1 (centres unmarked)	Human CLhep	0.864 L/h/kg
c1cc2cc(Nc3n[nH]c4nccnc34)ccc2c(OCC2CCOC2)n1 (centres unmarked)	Human CLhep	0.834 L/h/kg
c1cnc2c(Nc3ccc4c(OCC5COCCO5)nccc4c3)n[nH]c2c1 (centres unmarked)	Human CLhep	0.69 L/h/kg
c1cnc2c(Nc3ccc4c(O[C@@H]5CCCOC5)nccc4c3)n[nH]c2c1	Human CLhep	0.924 L/h/kg
c1cnc2[nH]nc(Nc3ccc4c(OCCN5CCOCC5)nccc4c3)c2c1	Human CLhep	1.01 L/h/kg
COCCOc1nccc2cc(Nc3n[nH]c4nccnc34)ccc12	Human CLhep	0.816 L/h/kg
COCCOc1nccc2cc(Nc3n[nH]c4ncccc34)ccc12	Human CLhep	0.762 L/h/kg
c1cnc2c(Nc3ccc4c(OCC5CCOC5)nccc4c3)n[nH]c2c1 (centres unmarked)	Human CLhep	0.834 L/h/kg
COCCOc1nccc2cc(Nc3n[nH]c4ccccc34)ccc12	Human CLhep	0.744 L/h/kg
Fc1cnc2c(Nc3ccc4c(O[C@H]5CCOC5)nccc4c3)n[nH]c2c1	Human CLhep	0.816 L/h/kg
CO[C@H](C)COc1nccc2cc(Nc3n[nH]c4cccnc34)ccc12	Human CLhep	0.918 L/h/kg
c1cnc2c(Nc3ccc4c(O[C@@H]5CCOC5)nccc4c3)n[nH]c2c1	Human CLhep	0.924 L/h/kg
C[C@H]1OCC[C@H]1Oc1nccc2cc(Nc3n[nH]c4cccnc34)ccc12	Human CLhep	1.06 L/h/kg
c1cnc2[nH]nc(Nc3ccc4c(OCC5COCCO5)nccc4c3)c2c1 (centres unmarked)	Human CLhep	0.648 L/h/kg
C[C@H]1C[C@H](Oc2nccc3cc(Nc4n[nH]c5ncccc45)ccc23)CO1	Human CLhep	0.583 L/h/kg
c1cc2cc(Nc3n[nH]c4nccnc34)ccc2c(OCC2CCOCC2)n1	Human CLhep	0.924 L/h/kg
c1cnc2c(Nc3ccc4c(OCC5CCCCO5)nccc4c3)n[nH]c2c1 (centres unmarked)	Human CLhep	0.978 L/h/kg
c1cnc2c(Nc3ccc4c(OC5CCOCC5)nccc4c3)n[nH]c2c1	Human CLhep	0.527 L/h/kg
c1cnc2c(Nc3ccc4c(O[C@H]5CCOC5)nccc4c3)n[nH]c2c1	Human CLhep	0.732 L/h/kg
CCOCCOc1nccc2cc(Nc3n[nH]c4ncccc34)ccc12	Human CLhep	0.972 L/h/kg
C[C@H]1OCC[C@H]1Oc1nccc2cc(Nc3n[nH]c4ncccc34)ccc12	Human CLhep	1.09 L/h/kg
C[C@H]1C[C@H](Oc2nccc3cc(Nc4n[nH]c5cccnc45)ccc23)CO1	Human CLhep	0.544 L/h/kg
C[C@@H]1C[C@H](Oc2nccc3cc(Nc4n[nH]c5cccnc45)ccc23)CO1	Human CLhep	0.81 L/h/kg
c1cc2cc(Nc3n[nH]c4nccnc34)ccc2c(OCC2COCCO2)n1 (centres unmarked)	Human CLhep	0.6 L/h/kg
COCCOc1nccc2cc(Nc3n[nH]c4cccnc34)ccc12	Human CLhep	0.792 L/h/kg
c1cnc2c(Nc3ccc4c(O[C@H]5CCCOC5)nccc4c3)n[nH]c2c1	Human CLhep	0.852 L/h/kg
c1cnc2[nH]nc(Nc3ccc4c(O[C@H]5CCOC5)nccc4c3)c2c1	Human CLhep	0.81 L/h/kg
COCCOc1nccc2cc(Nc3n[nH]c4cc(F)cnc34)ccc12	Human CLhep	1.04 L/h/kg
c1cnc2c(Nc3ccc4c(OCC5CCCOC5)nccc4c3)n[nH]c2c1 (centres unmarked)	Human CLhep	0.912 L/h/kg
c1cc2cc(Nc3n[nH]c4nccnc34)ccc2c(O[C@@H]2CCOC2)n1	Human CLhep	0.762 L/h/kg
COCCOc1nccc2cc(Nc3n[nH]c4ncc(F)cc34)ccc12	Human CLhep	0.804 L/h/kg
c1cnc2c(Nc3ccc4c(OCCN5CCOCC5)nccc4c3)n[nH]c2c1	Human CLhep	1.09 L/h/kg
c1cc2cc(Nc3n[nH]c4nccnc34)ccc2c(OCC2CCCCO2)n1 (centres unmarked)	Human CLhep	0.906 L/h/kg
Fc1cnc2[nH]nc(Nc3ccc4c(OC5CCOCC5)nccc4c3)c2c1	Human CLhep	0.804 L/h/kg
